Assayed target: Autotaxin (Homo sapiens, UniProt Q13822)
Test method notes: Inhibition of C-terminal FLAG-tagged human recombinant autotaxin using synthetic substrate FS-3 at 10 uM measured every 2 mins by FRET assay relative to control
Record 1 whenever inhibition is at 20% or higher; record -1 when lower.

For orientation, consider the following solved cases.
Input: # check: inhibition of Cc1[nH]n(-c2cc(Cl)c(S(=O)(=O)O)cc2Cl)c(=O)c1/N=N/c1cc(Nc2nc(Cl)nc(Nc3cccc(S(=O)(=O)O)c3)n2)ccc1S(=O)(=O)O is greater than or equal to 20%
Output: -1

Input: # check: inhibition of CCc1ccc2c(c1)c1nnc(SCC(=O)NCc3ccc4c(c3)OCO4)nc1n2C is greater than or equal to 20%
Output: -1

Input: # check: inhibition of COc1ccc(-c2cc(C(=O)NCC(C)C(=O)NCCNc3ccccc3)c3ccccc3n2)cc1 (stereo not drawn) is greater than or equal to 20%
Output: -1

Input: # check: inhibition of Cc1ccc(C)c(N2CCN(C3CN(C(=O)NCCc4ccccc4)CC3O)CC2)c1 (stereo not drawn) is greater than or equal to 20%
Output: -1

Input: # check: inhibition of CCc1nc2ccc(C(=O)NCCc3c[nH]c4ccccc34)cn2c1N(C)C(=O)C1CCCCC1 is greater than or equal to 20%
Output: -1

Input: # check: inhibition of CC(C)Cc1ccc(C(C)C(=O)N2CCC(CCCC3CCN(c4ccc(C(=O)NC(C(N)=O)C(C)O)cn4)CC3)CC2)cc1 (stereo not drawn) is greater than or equal to 20%
Output: 1

Input: # check: inhibition of CC(CC(=O)N1CCCN(c2ccc(C(=O)NC(C(N)=O)C(C)O)cn2)CC1)c1ccccc1 (stereo not drawn) is greater than or equal to 20%
Output: -1

Input: # check: inhibition of O=C(NCC(O)CO)c1ccc2c(c1)nc(COCc1ccccc1)n2Cc1ccco1 (stereo not drawn) is greater than or equal to 20%
Output: 1

Input: # check: inhibition of Cc1ccc(-c2ccc(-c3nnc(CCCC(=O)NC(CO)CO)o3)cc2)cc1 is greater than or equal to 20%
Output: -1

Input: # check: inhibition of CCC(COc1ccc2oc3ccccc3c2c1)NCCC(=O)N(CC(N)=O)Cc1ccc(C)cc1 (stereo not drawn) is greater than or equal to 20%
Output: -1

***
Input: # check: inhibition of COc1cc(C2CC(=O)NC(SCc3ccccc3)=C2C#N)ccc1O (stereo not drawn) is greater than or equal to 20%
Output: 1

Input: # check: inhibition of COc1ccc(CCn2c(-c3cc(OC)c(OC)c(OC)c3)nc3cc(C(=O)NCCc4ccccc4)ccc32)cc1OC is greater than or equal to 20%
Output: 1

Input: # check: inhibition of CCOc1ccc(/N=C\c2ccc(OCC)c(OCC)c2)cc1 is greater than or equal to 20%
Output: -1
